target: human TLR9 (Homo sapiens (Human)); assay: TLR9 inhibition reporter assay (HEK-Blue SEAP); conditions: read-out: TLR9 IC50; HEK-Blue human TLR9 cells, ODN2006 5 nM
Sequence (Q9NR96 26-1032): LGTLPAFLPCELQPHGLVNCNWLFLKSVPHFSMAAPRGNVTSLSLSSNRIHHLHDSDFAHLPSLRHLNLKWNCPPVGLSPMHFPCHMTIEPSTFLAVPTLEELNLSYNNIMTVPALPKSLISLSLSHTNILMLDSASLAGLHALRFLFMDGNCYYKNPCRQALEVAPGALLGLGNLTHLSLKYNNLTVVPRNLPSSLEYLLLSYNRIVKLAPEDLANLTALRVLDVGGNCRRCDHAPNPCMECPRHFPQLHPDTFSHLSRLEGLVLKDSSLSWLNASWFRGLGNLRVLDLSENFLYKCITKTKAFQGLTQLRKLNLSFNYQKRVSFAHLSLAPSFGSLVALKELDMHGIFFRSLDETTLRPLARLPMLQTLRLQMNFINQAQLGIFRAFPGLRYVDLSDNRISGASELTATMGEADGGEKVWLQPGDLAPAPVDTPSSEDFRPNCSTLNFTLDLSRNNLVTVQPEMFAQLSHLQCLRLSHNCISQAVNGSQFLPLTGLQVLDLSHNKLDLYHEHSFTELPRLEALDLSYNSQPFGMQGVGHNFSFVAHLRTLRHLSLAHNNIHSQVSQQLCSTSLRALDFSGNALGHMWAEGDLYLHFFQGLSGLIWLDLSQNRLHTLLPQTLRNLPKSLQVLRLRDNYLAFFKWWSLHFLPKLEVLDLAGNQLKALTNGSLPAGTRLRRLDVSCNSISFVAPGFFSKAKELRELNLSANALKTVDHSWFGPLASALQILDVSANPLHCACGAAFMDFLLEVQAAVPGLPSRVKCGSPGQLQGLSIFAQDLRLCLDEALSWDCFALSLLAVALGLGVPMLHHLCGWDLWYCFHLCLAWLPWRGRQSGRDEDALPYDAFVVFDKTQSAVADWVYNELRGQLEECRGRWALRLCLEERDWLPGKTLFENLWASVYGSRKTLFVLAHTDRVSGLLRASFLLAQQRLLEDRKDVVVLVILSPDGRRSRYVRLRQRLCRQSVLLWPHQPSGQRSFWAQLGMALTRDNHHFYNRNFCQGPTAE
For each entry below, report its IC50 value.
Give bare numbers, in µM.

Worked cases, IC50 given:
[[record]]
molecule = "Cc1c(-c2[nH]c3ccc(N4C[C@@H](C)N(C(=O)CCN5CC6(C5)CS(=O)(=O)C6)C[C@@H]4C)nc3c2C(C)C)cn2ncnc2c1C [Example 959]"
reported_endpoint = "IC50"
quantitative_readout = 7.68

[[record]]
molecule = "COCCN1CC2(C1)CN(c1ccc3[nH]c(-c4cn5ncnc5c(C)c4C)c(C(C)C)c3n1)C2 [Example 1013]"
reported_endpoint = "IC50"
quantitative_readout = 7.68

[[record]]
molecule = "Cc1c(-c2[nH]c3ccc(C4CCC(N5CCC6(COC6)C5)CC4)nc3c2C(C)C)cn2ncnc2c1C (stereo not shown) [Example 1063]"
reported_endpoint = "IC50"
quantitative_readout = 8.06


Go through the items and report each one's IC50.
1. Cc1c(-c2[nH]c3ccc(N4CCN(C(=O)CN(CC(C)C)C(C)C)CC4)nc3c2C(C)C)cn2ncnc2c1C [Example 880]
2. Cc1c(-c2[nH]c3ccc(N4CCN(CCCS(C)(=O)=O)C[C@H]4C)nc3c2C(C)C)cn2ncnc2c1C [Example 806]
3. CNCC(=O)N1CCN(c2ccc3[nH]c(-c4cn5ncnc5c(C)c4C)c(C(C)C)c3n2)CC1 [Example 830]

Solution:
1. 19.3
2. 29.4
3. 7.44

---

target: human TLR9 (Homo sapiens (Human)); assay: TLR9 inhibition reporter assay (HEK-Blue SEAP); conditions: read-out: TLR9 IC50; HEK-Blue human TLR9 cells, ODN2006 5 nM;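 also: SEAP driven by an IFN-β minimal promoter with NF-κB and AP-1 sites, read after 22 h, compounds dosed 0.05 nM–50 µM, inhibition scaled between agonist plus DMSO and reference-inhibitor wells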
For each entry below, report its pIC50 value.
Numbers only, as −log10 of the molar value.

Worked cases, pIC50 given:
[[record]]
compound = "Cc1c(-c2[nH]c3ccc(N4[C@@H]5CC[C@H]4CN(C(=O)CN4CCCC4)C5)nc3c2C(C)C)cn2ncnc2c1C"
reported_endpoint = "pIC50"
quantitative_readout = 5.28

[[record]]
compound = "Cc1c(-c2[nH]c3ccc(N4CCN(C(=O)[C@H](C)N(C)C)CC4)nc3c2C(C)C)cn2ncnc2c1C"
reported_endpoint = "pIC50"
quantitative_readout = 5.02

[[record]]
compound = "Cc1c(-c2[nH]c3ccc(N4CCN(C(=O)CN5CCCC5)C[C@@H]4C)nc3c2C(C)C)cn2ncnc2c1C"
reported_endpoint = "pIC50"
quantitative_readout = 5.20

[[record]]
compound = "CCNCC(=O)N1CCN(c2ccc3[nH]c(-c4cn5ncnc5c(C)c4C)c(C(C)C)c3n2)CC1"
reported_endpoint = "pIC50"
quantitative_readout = 4.97

[[record]]
compound = "CCN(C)CC(=O)N1CCN(c2ccc3[nH]c(-c4cn5ncnc5c(C)c4C)c(C(C)C)c3n2)C[C@@H]1C"
reported_endpoint = "pIC50"
quantitative_readout = 4.92


Go through the items and report each one's pIC50.
1. COc1cc(-c2[nH]c3ccc(C4CCC(N5CCC(F)C5)CC4)nc3c2C(C)C)cn2ncnc12 (centres unmarked) [Example 1067]
2. Cc1c(-c2[nH]c3ccc(N4C[C@@H](C)N(C(=O)CCN(C)C)[C@@H](C)C4)nc3c2C(C)C)cn2ncnc2c1C
3. Cc1c(-c2[nH]c3ccc(N4CCN(C(=O)CNC5CC5)CC4)nc3c2C(C)C)cn2ncnc2c1C

Solution:
5.27
5.30
4.78

Go through the items and report each one's pIC50.
1. Cc1c(-c2[nH]c3ccc(C4CCC(N5CC(C)(C)C5)CC4)nc3c2C(C)C)cn2ncnc2c1C (centres unmarked) [Example 1052]
2. Cc1c(-c2[nH]c3ccc(N4C[C@@H](C)N(C(=O)CCN(C)C)C[C@H]4C)nc3c2C(C)C)cn2ncnc2c1C
3. COc1cc(-c2[nH]c3ccc(C4CCC(N5CC6(CCOC6)C5)CC4)nc3c2C(C)C)cn2ncnc12 (centres unmarked) [Example 1070]
4. Cc1c(-c2[nH]c3ccc(N4C[C@@H](C)N(C(=O)CN(C)C(C)(C)C)[C@H](C)C4)nc3c2C(C)C)cn2ncnc2c1C
5. Cc1c(-c2[nH]c3ccc(C4CCC(N5CC6(CCOC6)C5)CC4)nc3c2C(C)C)cn2ncnc2c1C (centres unmarked) [Example 1065]

Solution:
1: 5.23; 2: 4.76; 3: 6.07; 4: 5.52; 5: 5.55

---

target: human TLR7 (Homo sapiens (Human)); assay: TLR7 inhibition reporter assay (HEK-Blue SEAP); format: cell-based; settings: HEK-Blue human TLR7 cells, gardiquimod 7.5 μM
Reported endpoint: IC50

Worked cases, IC50 given:
[[record]]
molecule = "Cc1c(-c2[nH]c3ccc(C4CCC(N5CC6(CCS6(=O)=O)C5)CC4)nc3c2C(C)C)cn2ncnc2c1C (centres unmarked) [Example 1077]"
result = "18 nM"

[[record]]
molecule = "Cc1c(-c2[nH]c3ccc(N4CC5CCC(C4)N5)nc3c2C(C)C)cn2ncnc2c1C"
result = "6.7 nM"

[[record]]
molecule = "Cc1c(-c2[nH]c3ccc(C4CCC(N5CC(C(=O)N(C)C)C5)CC4)nc3c2C(C)C)cn2ncnc2c1C (centres unmarked) [Example 1047]"
result = "1.3 nM"

[[record]]
molecule = "Cc1c(-c2[nH]c3ccc(N4C[C@@H](C)N(C(=O)CCN(C)C)[C@@H](C)C4)nc3c2C(C)C)cn2ncnc2c1C"
result = "0.3 nM"

[[record]]
molecule = "Cc1c(-c2[nH]c3ccc(N4CCN(C(=O)CNC(C)(C)C)CC4)nc3c2C(C)C)cn2ncnc2c1C"
result = "1.5 nM"


Go through the items and report each one's IC50.
1. Cc1c(-c2[nH]c3ccc(C4CCC(N5CCC6(COC6)C5)CC4)nc3c2C(C)C)cn2ncnc2c1C (centres unmarked) [Example 1060]
2. Cc1c(-c2[nH]c3ccc(N4C[C@@H](C)N(C(=O)CN(C)C)C[C@H]4C)nc3c2C(C)C)cn2ncnc2c1C
3. CCN(CC)CC(=O)N1CCN(c2ccc3[nH]c(-c4cn5ncnc5c(C)c4C)c(C(C)C)c3n2)CC1
4. COC1CN(C2CCC(c3ccc4[nH]c(-c5cn6ncnc6c(C)c5C)c(C(C)C)c4n3)CC2)C1 (centres unmarked) [Example 1042]
5. Cc1c(-c2[nH]c3ccc(N4CCN(C(=O)CN5CC(C)(O)C5)CC4)nc3c2C(C)C)cn2ncnc2c1C
6. Cc1c(-c2[nH]c3ccc(N4C[C@@H](C)N(C(=O)CCN(C)C)C[C@H]4C)nc3c2C(C)C)cn2ncnc2c1C
7. Cc1c(-c2[nH]c3ccc(N4C[C@@H](C)N(C(=O)CCN5CCOCC5(C)C)C[C@@H]4C)nc3c2C(C)C)cn2ncnc2c1C
8. Cc1c(-c2[nH]c3ccc(N4CCN(C(C)C)[C@H](C)C4)nc3c2C(C)C)cn2ncnc2c1C

Solution:
1. 0.5 nM
2. 6 nM
3. 1.6 nM
4. 2.2 nM
5. 1.4 nM
6. 10 nM
7. 0.84 nM
8. 5.9 nM

Exercise: Check human TLR7 (Homo sapiens (Human)) data and give IC50 for Cc1c(-c2[nH]c3ccc(C4CCC(N5CC6(CCS6(=O)=O)C5)CC4)nc3c2C(C)C)cn2ncnc2c1C (centres unmarked) [Example 1076] .
Solution: 1.6 nM

---

For each entry below, report its pIC50 value.
molecular target: UniProt:Q9NR97; test: TLR8 inhibition reporter assay (HEK-Blue SEAP); conditions: TLR8 IC50, HEK-Blue human TLR8 cells, R848 15.9 μM
Sequence (Q9NR97 27-1041): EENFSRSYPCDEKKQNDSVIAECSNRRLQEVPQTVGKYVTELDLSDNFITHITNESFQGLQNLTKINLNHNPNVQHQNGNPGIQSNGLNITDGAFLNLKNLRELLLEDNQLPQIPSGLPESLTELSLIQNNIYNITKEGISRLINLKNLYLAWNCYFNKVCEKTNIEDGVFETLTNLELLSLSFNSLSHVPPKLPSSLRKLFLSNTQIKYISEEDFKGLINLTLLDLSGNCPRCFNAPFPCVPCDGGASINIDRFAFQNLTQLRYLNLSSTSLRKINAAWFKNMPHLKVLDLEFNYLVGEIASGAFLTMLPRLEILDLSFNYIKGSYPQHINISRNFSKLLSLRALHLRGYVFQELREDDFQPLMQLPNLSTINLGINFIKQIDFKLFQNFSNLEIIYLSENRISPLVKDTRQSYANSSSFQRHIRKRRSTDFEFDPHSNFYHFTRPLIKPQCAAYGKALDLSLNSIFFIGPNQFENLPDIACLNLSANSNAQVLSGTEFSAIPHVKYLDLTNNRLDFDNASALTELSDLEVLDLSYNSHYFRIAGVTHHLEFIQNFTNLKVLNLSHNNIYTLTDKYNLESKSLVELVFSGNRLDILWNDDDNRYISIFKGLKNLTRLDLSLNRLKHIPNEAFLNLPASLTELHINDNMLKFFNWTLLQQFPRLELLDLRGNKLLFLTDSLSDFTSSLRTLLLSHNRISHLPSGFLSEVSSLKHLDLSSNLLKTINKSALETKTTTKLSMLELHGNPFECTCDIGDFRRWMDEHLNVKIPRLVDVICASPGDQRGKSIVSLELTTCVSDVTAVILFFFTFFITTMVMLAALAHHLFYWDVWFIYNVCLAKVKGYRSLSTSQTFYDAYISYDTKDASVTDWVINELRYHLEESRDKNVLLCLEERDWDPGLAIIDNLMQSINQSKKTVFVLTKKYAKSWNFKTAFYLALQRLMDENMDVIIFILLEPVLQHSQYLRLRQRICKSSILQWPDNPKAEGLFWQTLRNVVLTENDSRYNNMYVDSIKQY
One number for each entry, as −log10 of the molar value.

[[record]]
compound = "[2H]C([2H])([2H])NCCC(=O)N1C[C@H](C)N(c2ccc3[nH]c(-c4cn5ncnc5c(C)c4C)c(C(C)C)c3n2)C[C@H]1C"
measurement_target = "UniProt:Q9NR97"
quantitative_readout = 9.60

[[record]]
compound = "[2H]C1([2H])NC([2H])([2H])C([2H])([2H])N(c2ccc3[nH]c(-c4cn5ncnc5c(C)c4C)c(C(C)C)c3n2)C1([2H])[2H]"
measurement_target = "UniProt:Q9NR97"
quantitative_readout = 9.40


Exercise: Check UniProt:Q9NR97 data and give pIC50 for [2H]C([2H])([2H])N(C([2H])([2H])[2H])C([2H])([2H])C(=O)N1CCN(c2ccc3[nH]c(-c4cn5ncnc5c(C)c4C)c(C(C)C)c3n2)CC1 (single isomer, unassigned) .
Solution: 9.23

---

For each entry below, report its log10 IC50 value.
target: human TLR7 (Homo sapiens (Human), UniProt Q9NYK1); test: TLR7 inhibition reporter assay (HEK-Blue SEAP); assay type: cell-based; conditions: HEK-Blue human TLR7 cells, gardiquimod 7.5 μM
Sequence (Q9NYK1 27-1049): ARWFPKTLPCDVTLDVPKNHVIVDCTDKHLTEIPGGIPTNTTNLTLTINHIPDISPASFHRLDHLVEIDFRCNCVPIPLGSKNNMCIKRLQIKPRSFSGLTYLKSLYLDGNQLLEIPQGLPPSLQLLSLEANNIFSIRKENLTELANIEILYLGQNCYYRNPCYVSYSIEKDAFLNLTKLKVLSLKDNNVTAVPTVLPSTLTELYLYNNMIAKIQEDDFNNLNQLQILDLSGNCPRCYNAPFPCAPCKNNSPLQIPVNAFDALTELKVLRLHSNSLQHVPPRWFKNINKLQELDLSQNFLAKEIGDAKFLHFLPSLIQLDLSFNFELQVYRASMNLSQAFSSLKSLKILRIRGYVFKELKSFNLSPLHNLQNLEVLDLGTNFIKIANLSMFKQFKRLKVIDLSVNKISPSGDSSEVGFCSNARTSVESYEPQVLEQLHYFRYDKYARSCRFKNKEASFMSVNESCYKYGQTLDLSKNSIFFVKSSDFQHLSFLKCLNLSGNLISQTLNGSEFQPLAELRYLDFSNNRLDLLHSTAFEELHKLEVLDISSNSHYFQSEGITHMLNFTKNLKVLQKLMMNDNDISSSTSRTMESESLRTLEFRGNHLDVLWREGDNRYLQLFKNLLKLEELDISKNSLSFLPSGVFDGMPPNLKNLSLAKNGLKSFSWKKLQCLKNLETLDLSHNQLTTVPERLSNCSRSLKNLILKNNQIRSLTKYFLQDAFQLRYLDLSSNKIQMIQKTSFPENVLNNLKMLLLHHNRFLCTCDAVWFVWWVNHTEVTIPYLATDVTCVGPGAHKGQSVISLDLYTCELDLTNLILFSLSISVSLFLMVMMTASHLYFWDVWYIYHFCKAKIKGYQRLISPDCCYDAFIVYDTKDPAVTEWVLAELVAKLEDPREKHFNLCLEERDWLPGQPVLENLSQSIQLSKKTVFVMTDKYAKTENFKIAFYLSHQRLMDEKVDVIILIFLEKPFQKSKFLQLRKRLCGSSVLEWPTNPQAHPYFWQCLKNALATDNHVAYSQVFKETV
Please interpret these as log10 of IC50 where IC50 is in nM.

[[record]]
compound = "Cc1c(-c2[nH]c3ccc(N4CC(NC(C)C)C4)nc3c2C(C)C)cn2ncnc2c1C"
quantitative_readout = 0.88

[[record]]
compound = "Cc1c(-c2[nH]c3ccc(N4CCN(C(=O)CN(C)C)C[C@@H]4C)nc3c2C(C)C)cn2ncnc2c1C"
quantitative_readout = -0.24

[[record]]
compound = "Cc1c(-c2[nH]c3ccc(C4CCC(N5CC(C)(O)C5)CC4)nc3c2C(C)C)cn2ncnc2c1C (stereo not shown) [Example 1041]"
quantitative_readout = -0.31

[[record]]
compound = "Cc1c(-c2[nH]c3ccc(C4CC5(C4)CN(CC(C)(C)O)C5)nc3c2C(C)C)cn2ncnc2c1C"
quantitative_readout = 0.88

[[record]]
compound = "Cc1c(-c2[nH]c3ccc(N4CCN(C(=O)CN5CCCC5)[C@@H](C)C4)nc3c2C(C)C)cn2ncnc2c1C"
quantitative_readout = 0.00

[[record]]
compound = "Cc1c(-c2[nH]c3ccc(N4CCN(C(=O)CN5CCC6(COC6)C5)CC4)nc3c2C(C)C)cn2ncnc2c1C"
quantitative_readout = -0.04


Exercise: Supply measured log10 IC50 of Cc1c(-c2[nH]c3ccc(C4CC5(C4)CN(CCCS(C)(=O)=O)C5)nc3c2C(C)C)cn2ncnc2c1C in your reply.
Solution: 0.49
